The following compounds were reported with pKi values on Orexin/Hypocretin receptor type 1 (Homo sapiens, UniProt O43613) in different studies.
Sequence (O43613 whole entry): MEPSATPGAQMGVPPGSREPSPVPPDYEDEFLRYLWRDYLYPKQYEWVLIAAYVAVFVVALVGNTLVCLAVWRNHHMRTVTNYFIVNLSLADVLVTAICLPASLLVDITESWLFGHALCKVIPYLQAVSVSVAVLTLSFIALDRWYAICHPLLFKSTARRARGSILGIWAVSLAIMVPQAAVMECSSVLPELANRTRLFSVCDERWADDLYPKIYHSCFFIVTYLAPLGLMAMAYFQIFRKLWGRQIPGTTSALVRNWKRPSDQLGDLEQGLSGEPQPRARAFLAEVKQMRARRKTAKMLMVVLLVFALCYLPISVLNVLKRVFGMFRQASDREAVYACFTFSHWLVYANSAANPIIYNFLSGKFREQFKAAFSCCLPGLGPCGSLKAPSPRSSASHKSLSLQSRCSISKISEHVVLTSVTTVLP
pKi: −log10 of the molar value.
readout.name: pKi

Cc1ccc(C(=O)N2[C@H](C)[C@H]3C[C@@H](Oc4ccc(Cl)cn4)[C@@H]2C3)c(-n2nccn2)n1 = 8.10
Cc1ccc(-c2ncccn2)c(C(=O)N2CCC[C@@H](Nc3nc4ccccc4o3)[C@@H]2C)n1 = 7.64
Cc1ccc(-n2nccn2)c(C(=O)N2C[C@H](COc3nccc4ccccc34)OC[C@H]2C)c1 = 8.66

[A] COc1ccc(C(=O)N2CCC[C@@H](Nc3cnc(C(F)(F)F)cn3)[C@@H]2C)c(-n2nccn2)c1
[B] COc1ccc(-n2nccn2)c(C(=O)N2CCC[C@@H](Nc3ncc(C(F)(F)F)cn3)[C@@H]2C)c1
Asked: Hello, I am sorting some records. Could you say if A or B has the smaller pKi value? // output: label of the selected item
Given back: A
(A: 7.24, B: 8.00)

[P] Cc1cc(C)nc(N[C@@H]2CCCN(C(=O)c3ccccc3-n3nccn3)[C@H]2C)n1 (racemic)
[Q] Cc1cc(C)nc(N[C@@H]2CCCN(C(=O)c3ccc(F)cc3-n3nccn3)[C@H]2C)n1 (racemic)
Asked: Hello, I am sorting some records. Could you say if P or Q has the smaller pKi value? // output: label of the selected item
Given back: Q
(Q: 5.99, P: 7.11)

---

The following compounds were reported with Ki values on Orexin/Hypocretin receptor type 1 (Homo sapiens, UniProt O43613) in different studies.
readout.name: Ki (nM)

CC1C2CC(Nc3cnc(C(F)(F)F)cn3)C(C2)N1C(=O)c1cccc(F)c1-c1ncccn1 (single isomer, unassigned) = 21
Cc1ccc(C(=O)N2CCC[C@@H](Nc3ncc(Cl)cn3)[C@@H]2C)c(-n2nccn2)c1 = 48
Cc1cnc(C(=O)N2CCC[C@@H](Nc3ccc(Cl)cn3)[C@@H]2C)c(-c2ncco2)c1 = 55

[1] C[C@@H]1[C@@H]2CC[C@@H]([C@H](Oc3ccc(C(F)(F)F)cn3)C2)N1C(=O)c1ccccc1-n1nccn1
[2] Cc1ccc(-c2ncccn2)c(C(=O)N2[C@H](CF)[C@@H]3CC[C@H]2[C@H](Oc2ccc(C(F)(F)F)cn2)C3)n1
Asked: Hello, I am sorting some records. Could you say if 1 or 2 has the smaller Ki value? // output: label of the selected item
Given back: 2

[a] Cc1ccc(C(=O)N2CCC[C@@H](Nc3ccc(C(F)(F)F)cn3)[C@@H]2C)c(-n2nccn2)n1
[b] O=C(c1cccc(F)c1-c1ncccn1)N1[C@H](CF)[C@@H]2CC[C@H]1[C@H](Oc1ccc(C(F)(F)F)cn1)C2
[c] Cc1cnc(-n2nccn2)c(C(=O)N2[C@H](C)[C@H]3C[C@@H](Oc4cnc(C(F)(F)F)cn4)[C@@H]2C3)c1 (relative stereo)
[d] Cc1ccc(-n2nccn2)c(C(=O)N2CCC[C@@H](COc3nccc4ccccc34)[C@@H]2C)c1 (stereo in doubt)
Asked: // ascending sort on recorded Ki Show the ranking through the labels, in the order asked for.
Given back: d, a, c, b
(d: 0.5 nM, a: 12 nM, c: 30 nM, b: 46 nM)

[a] C[C@@H]1[C@@H]2CC[C@@H]([C@H](Oc3ccc(C(F)(F)F)cn3)C2)N1C(=O)c1ncccc1-n1nccn1
[b] Cc1ccc(C(=O)N2CCC[C@@H](Nc3ncc(C(F)(F)F)cn3)[C@@H]2C)c(-n2nccn2)c1
Asked: Hello, I am sorting some records. Could you say if a or b has the smaller Ki value? // output: label of the selected item
Given back: b

[1] Cc1ccc(Br)c(C(=O)N2C(C)C3CC(Nc4cnc(C(F)(F)F)cn4)C2C3)n1 (racemic)
[2] Cc1cc(C)nc(N[C@@H]2CCCN(C(=O)c3c(F)cccc3-c3ncccn3)[C@H]2C)n1 (racemic)
Asked: Hello, I am sorting some records. Could you say if 1 or 2 has the smaller Ki value? // output: label of the selected item
Given back: 1
(1: 144 nM, 2: 400 nM)
